Target: human ether-à-go-go-related gene (hERG) potassium channel (human);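 further: peak tail current of the secondary pulse compared with the same well before compound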
Sequence (Q12809 whole entry, looked up): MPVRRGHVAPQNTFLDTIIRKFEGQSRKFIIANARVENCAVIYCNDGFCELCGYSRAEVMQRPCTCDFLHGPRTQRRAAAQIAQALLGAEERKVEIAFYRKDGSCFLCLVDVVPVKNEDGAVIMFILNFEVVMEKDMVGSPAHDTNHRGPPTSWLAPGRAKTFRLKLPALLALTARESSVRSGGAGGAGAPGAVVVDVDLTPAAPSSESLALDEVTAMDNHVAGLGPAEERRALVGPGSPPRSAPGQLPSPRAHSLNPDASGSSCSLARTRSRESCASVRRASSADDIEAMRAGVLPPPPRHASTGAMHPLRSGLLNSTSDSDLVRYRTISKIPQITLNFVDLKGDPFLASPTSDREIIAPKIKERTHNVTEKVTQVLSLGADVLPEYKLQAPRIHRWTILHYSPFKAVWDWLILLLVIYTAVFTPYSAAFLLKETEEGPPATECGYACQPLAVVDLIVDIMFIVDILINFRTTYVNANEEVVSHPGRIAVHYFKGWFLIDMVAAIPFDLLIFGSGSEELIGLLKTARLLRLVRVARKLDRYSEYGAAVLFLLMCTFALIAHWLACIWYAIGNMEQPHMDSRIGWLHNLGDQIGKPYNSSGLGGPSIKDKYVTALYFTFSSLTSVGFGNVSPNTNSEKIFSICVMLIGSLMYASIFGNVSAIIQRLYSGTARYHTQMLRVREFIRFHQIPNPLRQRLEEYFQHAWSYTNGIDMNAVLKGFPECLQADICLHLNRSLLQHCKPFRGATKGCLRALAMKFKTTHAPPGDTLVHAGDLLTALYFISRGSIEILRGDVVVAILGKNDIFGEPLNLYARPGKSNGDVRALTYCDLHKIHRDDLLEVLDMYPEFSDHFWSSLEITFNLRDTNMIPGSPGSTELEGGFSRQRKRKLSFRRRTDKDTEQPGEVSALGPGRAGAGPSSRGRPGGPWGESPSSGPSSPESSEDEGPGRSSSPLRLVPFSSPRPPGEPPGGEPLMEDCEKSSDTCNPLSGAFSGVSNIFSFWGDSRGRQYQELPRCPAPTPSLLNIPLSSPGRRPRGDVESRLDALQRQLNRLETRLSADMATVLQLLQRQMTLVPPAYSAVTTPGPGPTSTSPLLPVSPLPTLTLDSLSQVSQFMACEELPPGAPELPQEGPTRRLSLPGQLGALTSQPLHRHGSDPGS
Assay: primary screen, population patch clamp on CHO cells stably expressing hERG; higher = less effect of the substance
Out of some 310,000 compounds screened, about 14,000 (4.5%) showed an effect of 50% or more. Effects have a minus sign here. This is one part of a sample in which strong results are shown more often than they occur.
Quick reference: hERG current change (%, negative = inhibition) at 10uM of the listed items.
Answer with a number only, understood to be in %.

Form field hERG current change (%, negative = inhibition) at 10uM, entry Cc1ccc([N+](=O)[O-])cc1N=C(c1cccc([N+](=O)[O-])c1)N1CCOCC1 : -26

Form field hERG current change (%, negative = inhibition) at 10uM, entry CC(C)Cc1n[nH]c(=O)[nH]1 : -6.31

Form field hERG current change (%, negative = inhibition) at 10uM, entry O=[N+]([O-])c1ccc(-c2nnc(-c3ccccc3)c(NCCCO)n2)cc1 : -67.3

Form field hERG current change (%, negative = inhibition) at 10uM, entry NC(=O)c1ccc(NC(=O)CNC(=O)c2sc3ccccc3c2Cl)cc1 : 0.282

Form field hERG current change (%, negative = inhibition) at 10uM, entry CC(C)(C)OC(=O)CNC(=O)c1nc[nH]c1C(=O)NCC(=O)OC(C)(C)C : 3.98

***
Form field hERG current change (%, negative = inhibition) at 10uM, entry O=C(c1cc(F)ccc1F)C1CCCN(Cc2ccc3nonc3c2)C1 (centres unmarked) : -12

Form field hERG current change (%, negative = inhibition) at 10uM, entry COc1ccc(CC(=O)NCC2CCCN(Cc3cccc(C(F)(F)F)c3)C2)cc1 (centres unmarked) : -28

Form field hERG current change (%, negative = inhibition) at 10uM, entry Cc1ccc([N+](=O)[O-])cc1N=C(c1ccc([N+](=O)[O-])cc1)N1CCOCC1 : -20.8

Form field hERG current change (%, negative = inhibition) at 10uM, entry OCCCNc1nc(-c2ccc(Br)cc2)nnc1-c1ccc(Cl)cc1 : -52.3
